Measurement Protocol: self-splicing fitness, log relative to wild type (ln ratio); higher = more splicing; Tetrahymena group I intron in knt gene, E. coli kanamycin selection, DiMSum; sequences stand for … in CUCUCU…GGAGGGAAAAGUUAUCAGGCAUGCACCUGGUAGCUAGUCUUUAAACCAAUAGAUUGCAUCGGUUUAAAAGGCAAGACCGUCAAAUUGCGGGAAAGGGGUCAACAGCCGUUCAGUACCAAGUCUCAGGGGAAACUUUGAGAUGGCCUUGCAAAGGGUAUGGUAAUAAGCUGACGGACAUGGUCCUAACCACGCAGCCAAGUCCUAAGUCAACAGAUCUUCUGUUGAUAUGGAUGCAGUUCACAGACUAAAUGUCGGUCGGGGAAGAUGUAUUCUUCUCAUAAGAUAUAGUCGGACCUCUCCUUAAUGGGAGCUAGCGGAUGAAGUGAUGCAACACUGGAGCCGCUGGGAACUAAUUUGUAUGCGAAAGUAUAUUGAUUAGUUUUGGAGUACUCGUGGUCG;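 note: selection with 25 µg/mL kanamycin versus none on LB agar overnight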
Test Conditions: 37 °C
Classes are defined on self-splicing fitness (ln) with ranges lo = under -2, mid = from -2 up to -0.6, hi = -0.6 and over

[
  {
    "Sequence Record": "CAGAAGCAAUAUUACGUCAA",
    "Discrete Label": "lo"
  },
  {
    "Sequence Record": "AUAGAGCAAUAUUACGACAU",
    "Discrete Label": "hi"
  },
  {
    "Sequence Record": "AUUGAGCAAUAUUACGAAUU",
    "Discrete Label": "mid"
  },
  {
    "Sequence Record": "UCAGAGCAAUAUUACGAACC",
    "Discrete Label": "mid"
  },
  {
    "Sequence Record": "GUGAAGCAAUAUUACGGUCA",
    "Discrete Label": "hi"
  },
  {
    "Sequence Record": "AUGUAGCAAUAUUACGUUCG",
    "Discrete Label": "hi"
  },
  {
    "Sequence Record": "AUGCAGCAAUAUUACGGACA",
    "Discrete Label": "hi"
  },
  {
    "Sequence Record": "ACUAAGCAAUAUUACGCGAC",
    "Discrete Label": "lo"
  },
  {
    "Sequence Record": "GUCCAGCAAUAUUACGUGAU",
    "Discrete Label": "hi"
  },
  {
    "Sequence Record": "CUACAGCAAUAUUACGCUUA",
    "Discrete Label": "lo"
  },
  {
    "Sequence Record": "AGAGAGCAAUAUUACGAAUU",
    "Discrete Label": "lo"
  },
  {
    "Sequence Record": "UGUAAGCAAUAUUACGUGCA",
    "Discrete Label": "mid"
  },
  {
    "Sequence Record": "GGGCAGCAAUAUUACGGGGC",
    "Discrete Label": "mid"
  }
]
